FYI, the data here is from ChEMBL document CHEMBL1152680.

Consider the following substances; for each one, report its pKd.
- study_target: Human immunodeficiency virus type 1 integrase (Human immunodeficiency virus 1, UniProt Q7ZJM1)
- Sequence (Q7ZJM1 whole entry): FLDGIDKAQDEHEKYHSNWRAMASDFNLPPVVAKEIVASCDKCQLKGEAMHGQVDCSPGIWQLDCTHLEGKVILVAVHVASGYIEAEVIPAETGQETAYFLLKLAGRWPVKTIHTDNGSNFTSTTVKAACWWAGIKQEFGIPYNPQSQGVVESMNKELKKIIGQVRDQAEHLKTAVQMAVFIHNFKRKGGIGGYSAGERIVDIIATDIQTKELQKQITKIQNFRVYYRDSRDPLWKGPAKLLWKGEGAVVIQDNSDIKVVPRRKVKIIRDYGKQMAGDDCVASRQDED
- protocol_text: Binding affinity to histidine-tagged HIV1 full length integrase by fluorescence anisotropy
- particulars: read-out: Kd
Lab note — pKd values are minus log10 of concentrations in M.

Task item: Retrieve pKd measured for H-WQSLTLTHRG-OH and print it.
Reply: 5.92

Task item: Using the record for H-WFVLLTITVLR-OH [WFVLLTITVLR] , state its measured pKd.
Reply: 5.74

Task item: Give the measured pKd for H-WQCLTLTHRG-OH
Reply: 5.77

###

Provide the recorded inhibition for the entries that follow.
- study_target: Human immunodeficiency virus type 1 integrase (Human immunodeficiency virus 1) (UniProt Q7ZJM1)
- Sequence (Q7ZJM1 as listed by the source): as the sequence (Q7ZJM1 whole entry) above
- protocol_text: Inhibition of histidine-tagged HIV1 full length integrase assessed as inhibition of viral DNA integration into human SupT1 cellular genome at 62.5 uM treated 2 hrs before viral infection measured after 24 hrs by real time PCR analysis
- Format: cell-based
Give the value, in units of %, as a plain number.

Task item: Determine from records and report inhibition for H-WQCLTLTHRG-OH
Reply: 64

Task item: Assign inhibition to the following record: H-WQCLTLTHRGFVLLTITVLR-OH
Reply: 63

Task item: Tell me measured inhibition for H-WQSLTLTHRG-OH please.
Reply: 51

Task item: Look up inhibition of H-WFVLLTITVLR-OH [WFVLLTITVLR] and report it.
Reply: 23

###

- study_target: Human immunodeficiency virus type 1 integrase (Human immunodeficiency virus 1)
- protocol_text: Binding affinity to tetrameric histidine-tagged HIV1 full length integrase by fluorescence anisotropy
measured_endpoint: Kd (µM)
State just the number; it will be interpreted in µM.

Task item: Could you please provide reported Kd for H-WQCLTLTHRGFVLLTITVLR-OH ? Thanks!
Reply: 8.7
